Provenance of the data: ChEMBL document CHEMBL1138130

MIC for assorted compounds
system: Streptococcus pneumoniae; test: Antibacterial activity against erm(B) ribosomal methylase gene containing Streptococcus pneumoniae OC4051; assay type: functional
Respond with a number, then the unit of measure.

Check out these entries, answers already filled in.
CC[C@H]1OC(=O)[C@H](C)[C@@H](OC(=O)C(C)C)[C@H](C)[C@@H](O[C@@H]2O[C@H](C)C[C@H](N(C)C)[C@H]2O)[C@](C)(OC(=O)NC/C=C/C=C/c2cccnc2)C[C@@H](C)C(=O)[C@H](C)[C@H]2NC(=O)O[C@@]21C :: 0.25 µg/mL
CC[C@H]1OC(=O)[C@H](C)[C@@H](OC(=O)N(CC)CC)[C@H](C)[C@@H](O[C@@H]2O[C@H](C)C[C@H](N(C)C)[C@H]2O)[C@](C)(OC(=O)NC/C=C/c2ccc(-c3ncccn3)cc2)C[C@@H](C)C(=O)[C@H](C)[C@H]2NC(=O)O[C@@]21C :: 0.12 µg/mL
CC[C@H]1OC(=O)[C@H](C)[C@@H](OC(=O)CCc2cccnc2)[C@H](C)[C@@H](O[C@@H]2O[C@H](C)C[C@H](N(C)C)[C@H]2O)[C@](C)(OC(=O)NC/C=C/c2ccc(-c3ncccn3)cc2)C[C@@H](C)C(=O)[C@H](C)[C@H]2NC(=O)O[C@@]21C :: 2 µg/mL
CC[C@H]1OC(=O)[C@H](C)[C@@H](OC(=O)Nc2ccc(OC)cc2)[C@H](C)[C@@H](O[C@@H]2O[C@H](C)C[C@H](N(C)C)[C@H]2O)[C@](C)(OC(=O)NC/C=C/c2ccc(-c3ncccn3)cc2)C[C@@H](C)C(=O)[C@H](C)[C@H]2NC(=O)O[C@@]21C :: 4 µg/mL
CC[C@H]1OC(=O)[C@H](C)[C@@H](OC(=O)Cc2cccnc2)[C@H](C)[C@@H](O[C@@H]2O[C@H](C)C[C@H](N(C)C)[C@H]2O)[C@](C)(OC(=O)NC/C=C/c2cnc(C3CC3)nc2)C[C@@H](C)C(=O)[C@H](C)[C@H]2NC(=O)O[C@@]21C :: 0.25 µg/mL
CC[C@H]1OC(=O)[C@H](C)[C@@H](OC(=O)Cc2cccnc2)[C@H](C)[C@@H](O[C@@H]2O[C@H](C)C[C@H](N(C)C)[C@H]2O)[C@](C)(OC(=O)NC/C=C/c2ccc(-c3ncccn3)cc2)C[C@@H](C)C(=O)[C@H](C)[C@H]2NC(=O)O[C@@]21C :: 0.12 µg/mL
CC[C@H]1OC(=O)[C@H](C)[C@@H](OC(=O)Nc2ccc(F)cc2)[C@H](C)[C@@H](O[C@@H]2O[C@H](C)C[C@H](N(C)C)[C@H]2O)[C@](C)(OC(=O)NC/C=C/c2ccc(-c3ncccn3)cc2)C[C@@H](C)C(=O)[C@H](C)[C@H]2NC(=O)O[C@@]21C :: 2 µg/mL

Item CC[C@H]1OC(=O)[C@H](C)[C@@H](OC(=O)N(CC)Cc2cccnc2)[C@H](C)[C@@H](O[C@@H]2O[C@H](C)C[C@H](N(C)C)[C@H]2O)[C@](C)(OC(=O)NC/C=C/c2ccc(-c3ncccn3)cc2)C[C@@H](C)C(=O)[C@H](C)[C@H]2NC(=O)O[C@@]21C with Streptococcus pneumoniae - MIC?
0.25 µg/mL
